Entries and their self-cleavage
B1: HDV Ribozyme (parent)
chain: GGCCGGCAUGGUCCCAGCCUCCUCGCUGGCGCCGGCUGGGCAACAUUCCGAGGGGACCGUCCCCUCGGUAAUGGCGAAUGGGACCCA

- Variants of: B1
- Assay Text: self-cleavage, relative activity (ratio to wild type); higher = more cleavage; co-transcriptional
Value Kind: self-cleavage

1) GGCCGGCAUGCUCCCAGCCUCCUCGCUGGCGCCGGCUGGGCAACAUUCCGAGGGGACCGUCCCCUCGAUAAUGGCGAAUGGGACCCA	0.295
2) GGCCGGCAUGGUCCCAGCCUCCUCGCUGGCGCCGGCUGGGCAACAUUCCGAGGGGACCGUCCCCUCGGUAAGGGCGAACGGGACCCA	0.297
3) GGCCCGCAUGGUCCCAGCCUCCUCGCGGGCGCCGGCUGGGCAACAUUCCGAGGGGACCGUCCCCUCGGUAAUGGCGAAUGGGACCCA	0.302
